# Tested on: SW480
# measurementProtocol: Antiproliferative activity against human SW480 cells after 48 hrs by MTT assay
# Type: functional, cell-based
# testParameters: SW480, 48 h
measure: IC50 (µM)

1) CC(C)=CC/C=C(\C)[C@H]1CC[C@]2(C)C1=CC[C@@H]1[C@@]3(C)CC[C@H](OC(=O)CBr)C(C)(C)[C@@H]3CC[C@]12C
39.4
2) CC1(C)CCC[C@@](C)([C@H]2CC[C@]3(C)[C@@H]2[C@H](O)C[C@@H]2[C@@]4(C)CC[C@H](O)C(C)(C)[C@@H]4CC[C@]23C)O1
73.4
3) CC(C)=CC/C=C(\C)[C@H]1CC[C@]2(C)[C@@H]1[C@H](OC(=O)CCl)C[C@@H]1[C@@]3(C)CC[C@H](OC(=O)CCl)C(C)(C)[C@@H]3CC[C@]12C
13.7
4) CC1(C)CCC[C@@](C)([C@H]2CC[C@]3(C)[C@@H]2[C@H](O)C[C@@H]2[C@@]4(C)CC[C@H](OC(=O)CBr)C(C)(C)[C@@H]4CC[C@]23C)O1
14.2
5) CC1(C)CCC[C@@](C)([C@H]2CC[C@]3(C)[C@@H]2[C@H](O)C[C@@H]2[C@@]4(C)CC[C@H](OC(=O)CCl)C(C)(C)[C@@H]4CC[C@]23C)O1
15.8
6) CC1(C)CCC[C@](C)([C@H]2CC[C@]3(C)[C@@H]2[C@H](OC(=O)CBr)C[C@@H]2[C@@]4(C)CC[C@H](OC(=O)CBr)C(C)(C)[C@@H]4CC[C@]23C)O1
15.2

A: CC(C)=CC/C=C(\C)[C@H]1CC[C@]2(C)[C@@H]1[C@H](Br)C[C@@H]1[C@@]3(C)CC[C@H](OC(=O)CBr)C(C)(C)[C@@H]3CC[C@]12C
B: CC(C)(CCC[C@@]1(C)O[C@@H]2C[C@@H]3[C@@]4(C)CC[C@H](OC(=O)CCl)C(C)(C)[C@@H]4CC[C@@]3(C)[C@]3(C)CC[C@H]1[C@@H]23)OC(=O)CCl
C: C/C(=C\CCC(C)(C)O)[C@H]1CC[C@]2(C)[C@@H]1[C@H](OC(=O)CBr)C[C@@H]1[C@@]3(C)CC[C@H](OC(=O)CBr)C(C)(C)[C@@H]3CC[C@]12C
D: C/C(=C\CCC(C)(C)O)[C@H]1CC[C@]2(C)[C@@H]1[C@H](OC(=O)CBr)C[C@@H]1[C@@]3(C)CC[C@H](O)C(C)(C)[C@@H]3CC[C@]12C
E: C/C(=C\CCC(C)(C)O)[C@H]1CC[C@]2(C)[C@@H]1[C@H](OC(=O)CCl)C[C@@H]1[C@@]3(C)CC[C@H](OC(=O)CCl)C(C)(C)[C@@H]3CC[C@]12C
Give the ascending ranking of the items by reported IC50. Lab note: final answer is the ordered label list.
D, C, E, A, B
